- experimentalSystem: Tyrosine-protein phosphatase non-receptor type 1 (Homo sapiens)
- Sequence (P18031 whole entry): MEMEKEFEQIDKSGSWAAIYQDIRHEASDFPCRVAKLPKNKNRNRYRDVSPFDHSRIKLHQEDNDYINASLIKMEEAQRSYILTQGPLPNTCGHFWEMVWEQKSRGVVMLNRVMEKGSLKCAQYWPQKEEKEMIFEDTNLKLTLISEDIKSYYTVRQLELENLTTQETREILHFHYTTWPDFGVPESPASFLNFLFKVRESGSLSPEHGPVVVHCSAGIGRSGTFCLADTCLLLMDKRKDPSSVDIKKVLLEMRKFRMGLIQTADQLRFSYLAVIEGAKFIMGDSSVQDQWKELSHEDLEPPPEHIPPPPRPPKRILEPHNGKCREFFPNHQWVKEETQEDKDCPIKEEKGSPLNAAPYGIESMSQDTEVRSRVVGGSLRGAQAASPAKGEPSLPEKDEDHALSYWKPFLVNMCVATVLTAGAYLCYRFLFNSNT
- assayExplanation: Inhibition of PTP1B expressed in Sf9 cells
Each entry below carries its recorded pIC50.
Note on pIC50: it is the negative log10 of concentration, concentration in mol/L.

Please review the following examples before continuing.
                                   compound  readoutname  measured
0  COC(=O)c1c(O)cccc1OC/C=C/c1ccc(F)c(-c2cc(C(=O)O)no2)c1        pIC50      3.96
1  COCn1cc(C(O)(C(=O)O)C(F)(F)F)c2cc(OCCc3sc(-c4ccc(Cl)cc4)nc3C)ccc21 (centres undefined)        pIC50      4.23
2  COc1ccc(COc2ccc(C(O)(C(=O)O)C(F)(F)F)cc2OCCc2sc(-c3ccc(Cl)cc3)nc2C)cc1 (centres undefined)        pIC50      4.92

// recorded pIC50 for Cc1nc(-c2ccc(Cl)cc2)sc1CCOc1cc(C(O)(C(=O)O)C(F)(F)F)ccc1OCc1ccncc1 (centres undefined) : 4.44

// recorded pIC50 for Cc1nc(-c2ccc(Cl)cc2)sc1CCOc1cc(C(O)(C(=O)O)C(F)(F)F)ccc1OCc1ccccc1 (centres undefined) : 5.49

// recorded pIC50 for Cc1nc(-c2ccc(Cl)cc2)sc1CCOc1cc(C(O)(C(=O)O)C(F)(F)F)ccc1O (centres undefined) : 3.98

// recorded pIC50 for Cc1nc(-c2ccc(Cl)cc2)sc1CCOc1cc(C(O)(C(=O)O)C(F)(F)F)ccc1OCCc1ccccc1 (centres undefined) : 5.00

// recorded pIC50 for Cc1nc(-c2ccc(Cl)cc2)sc1CCOc1cc(C(O)(C(=O)O)C(F)(F)F)ccc1OCC(=O)O (centres undefined) : 3.30

// recorded pIC50 for COCn1cc(C(O)(C(=O)O)C(F)(F)F)c2cccc(OCc3ccccc3)c21 (centres undefined) : 3.75
